The origin of these recorded values is a melting point compilation (Tetko et al.).

melting point values by entry
The reply should contain only the number, in °C.

Previously resolved entries follow.
C/C(OCCc1ccc([N+](=O)[O-])cc1)=C(\C#N)c1ccccc1	138
O=C(O)c1ccno1	143
CC(=O)N1C(=O)c2ccccc2C1=O	137
CCOC(=O)NC(N)=O	196
N#Cc1c(N)sc2c1CCCC2	142

Problem: Using the record for CCO[Si](CCCN)(OCC)OCC , report its melting point.
Solution: -70

Problem: Need melting point of O=C1CN(N=Cc2ccc([N+](=O)[O-])o2)C(=O)N1CN1CCOCC1 , thanks.
Solution: 206

Problem: So what's the measured melting point for this one? CC12CCC(=O)C=C1CCC1C2CCC2(C)C(O)CCC12 (stereo not given)
Solution: 153

Problem: I am curious: what melting point value has been reported for O=Cc1ccc2ccc3cccc4ccc1c2c34 ?
Solution: 127

====

Items are presented alongside their recorded melting point.

// solved cases for melting point follow
O=C1OC(=O)c2c(F)cccc21	159 to 163 °C
CCCCCCCCCCCCC#CC#CCO	57 to 59 °C
CN(C)C(=S)NN	149 to 153 °C

Problem: So what does the record say about melting point for O=C(Cl)Cc1ccc2ccccc2c1 ?
Solution: 60 to 61 °C

====

Output label 1 for melting point not less than 100 °C; output label 0 otherwise.

Reference set (8 entries):
CC[C@H](C)[C@@H](N)C(=O)O	label 1
Nc1nc(O)cc(Cl)n1	label 1
O=C(Nc1cc(Cl)cc(Cl)c1O)c1c(O)c(Cl)cc(Cl)c1Cl	label 1
O=C(C1=NOC2C(=O)N(c3ccc(Cl)cc3)C(=O)C12)c1ccc2ccccc2c1 (configuration not stated)	label 1
O=c1ccc2ccc(O)c(O)c2o1	label 1
C=C1C(=O)C23C(OC(C)=O)CC4C(C)(C)CCC(OC(C)=O)C4(C=O)C2C(OC(C)=O)CC1C3OC(C)=O (configuration not stated)	label 1
O=C1OC(c2ccccc2)(c2ccccc2)c2ccccc21	label 1
O=C(c1cccs1)c1noc(-c2ccc(Cl)cc2)c1S(=O)(=O)c1ccccc1	label 1

Problem: Given the entry CN1C(CC(=O)c2ccccc2)CCCC1CC(O)c1ccccc1 (configuration not stated) , answer whether its melting point meets or surpasses 100 °C.
Solution: label 1

Problem: Textbook exercise: given the entry Cc1[nH]nc(-c2ccccc2)c1C , state whether its melting point is greater than or equal to 100 °C.
Solution: label 1

====

Entries and their melting point

Please review the entries below; each comes with its answer.
CC(Nc1ccccn1)=C(C#N)C(=O)c1ccccc1	151 to 152 °C
CN1CCN(C)c2cc(C#N)ccc21	80 to 82 °C

Problem: Param item = CC(O)[C@@]1(O)CC[C@H]2[C@@H]3CCC4(C)C[C@H](O)CC[C@]4(C)[C@H]3CC[C@@]21C (stereo not given in full) ; retrieve measured melting point.
Solution: 254 to 255 °C

Problem: Which melting point reading was recorded for the compound N[C@@H](CCCCNC(=O)c1ccccc1)C(=O)O ?
Solution: 251 to 256 °C

====

measurement type: melting point

Worked cases, answers included:
O=C1OCc2cc(Br)ccc21	162 to 166 °C
CC(=O)c1cc[nH]c1	112 to 114 °C
CNCc1c(C)nc2ccccn12	73 to 75 °C
CC(C)(C)OC(=O)ON=C(C#N)c1ccccc1	86 to 89 °C
COC(=O)C(OC)C(=O)OC	11 to 12 °C

Problem: Any idea what melting point was measured for CNc1cc(Cl)ccc1[N+](=O)[O-] ?
Solution: 104 to 107 °C

Problem: Recorded melting point for O=C(O)C12CC3CC(C1)CC(c1ccc([N+](=O)[O-])cc1)(C3)C2 , please?
Solution: 197 to 200 °C

Problem: Return reported melting point; argument: N#C/C(=C\c1ccc(F)cc1)c1nc2ccccc2c(=O)[nH]1
Solution: 305 to 306 °C

====

measurement type: melting point (°C)
The reply should be a number in °C, with the unit left off.

Oc1c2cccc1Cc1cccc(c1O)Cc1cccc(c1O)Cc1cccc(c1O)C2	317
CN(C)c1nc(=O)n(C2CCCCC2)c(=O)n1C	116
CNC(=S)NCc1ccccc1	75

Now let's try a different one.
Problem: Reported melting point for CCCCCOc1ccc(-c2ccc(C#N)cc2)cc1 : what is it?
Solution: 48

====

Let's look at some compounds and their measured melting point.

Known results for compounds:
NC(=NO)c1cccc(C(F)(F)F)c1	82 to 88 °C
O=[N+]([O-])c1ccc(S(=O)(=O)F)cc1	76 to 80 °C
Cn1c2ccccc2n2c(=O)c3cccnc3c(C#N)c12	292 to 293 °C
COc1cc(CC#N)c(OC)cc1CC#N	198 to 200 °C

Problem: State the recorded melting point for this entry: Cc1cc(O)c(C(C)C)cc1SC#N
Solution: 103 to 105 °C

====

Each entry below carries its reported melting point.
Field: numeric (°C). Do not append units.

Field: example entries. Status: answers known.
O=c1oc2ccccc2c(O)c1C1CCCc2ccccc21 (centres undefined)	174
Oc1ccc(Cl)cc1F	20
Clc1ccc2c(c1)Oc1cc(Cl)c(Cl)cc1O2	162

Problem: What melting point value was documented for this compound, CNc1ccc2cc3ccc4c(c3nc2c1CO)COCN4S(C)(=O)=O ?
Solution: 205

Problem: What does the record list as melting point for Cc1cccc(N2C(=O)C3ON=C(C(=O)c4ccco4)C3C2=O)c1 (centres undefined) ?
Solution: 129

Problem: Given Nc1ncnc2c1ncn2C1OC2COP(=O)(O)OC2C1O (centres undefined) , state its recorded melting point.
Solution: 260

Problem: Entry CCN(CC)C(=O)n1cnc(S(=O)(=O)c2c(C)cc(C)cc2C)n1 has what melting point?
Solution: 115

Problem: Could you share which melting point value was measured for COc1ccc([N+](=O)[O-])cn1 ?
Solution: 108

====

The following compounds are listed with their measured melting point values.

Problem: Quick check: melting point of O=C(O)c1cccc2cccc(Br)c12 ?
Solution: 169 to 171 °C

Problem: Requested field: melting point. Item: N#Cc1ccc(CCc2ccc(C#N)cc2)cc1
Solution: 198 to 203 °C

====

measurement type: melting point (°C)
Give the number; °C is assumed, so skip it.

Answered examples (3):
CN1C2CCC1CC(OC(=O)C(O)c1ccccc1)C2 (configuration not stated)	99.5
O=C1/C(=N\Nc2cc(-c3ccccc3)n[nH]2)C(C(F)(F)F)=NN1c1ccccc1	280
COc1cc(C(=O)Cc2ccccc2)c([N+](=O)[O-])cc1OC	152

Problem: What value of measured melting point is listed for CC(C)(Oc1ccc(Cl)cc1)C(=O)OCCOC(=O)c1cccnc1 ?
Solution: 100

Problem: For O=C(Cl)c1ccc2c(c1)C(=O)OC2=O , what is its reported melting point?
Solution: 68

Problem: I'd like to know its melting point. The compound in question is CC(=O)Oc1ccc(I)cc1
Solution: 32

Problem: Tell me the measured melting point of CCCCCCCC(=O)Cl , please.
Solution: -63

Problem: Bench note: what melting point did Cc1ccc2ocnc2c1 show?
Solution: 43

Problem: Could you share which melting point value was measured for Fc1ccc2ccccc2c1 ?
Solution: 61

====

Use true when the recorded melting point is no lower than 200 °C; use false when it is lower.

Observe how each entry below is paired with its result.
CC1=CC(=O)c2c(O)cccc2C1=O	false
Cc1ccc(C)c(N/N=C(\C#N)c2nc3ccccc3n2C)c1	true
CCc1ccnc(N)c1	false
Cc1ccc(Nc2ccc(C)cc2)cc1	false
c1ccc2c(c1)Oc1nc3ccccc3nc1O2	true
NC(=O)NC(=O)Cc1ccccc1	true
N#CC1=C(N)N2C(=C(C#N)C1c1ccc(Cl)cc1)Sc1ccccc12 (configuration not stated)	true
CCCCCCCCCCCC(=O)NC	false
Cc1cc(C)c2c(c1)CC2=O	false

Field: next compound
Problem: Reported melting point at or above 200 °C? N#Cc1c(F)c(F)c(F)c(F)c1C#N
Solution: false

====

Measured melting point by item

C=CCc1cc(C=O)c(O)c(OC)c1	48 to 52 °C
CC1=C(C#N)C(c2cccc([N+](=O)[O-])c2)C(C(=O)OCCN(C)C)=C(C)N1 (centres undefined)	72 to 73 °C
CC(C)c1ccc(C=CC(=O)O)cc1	157 to 161 °C

Problem: Any idea what its melting point is? The compound is COc1ccc(Cl)c(OC)c1C(N)=O
Solution: 156 to 158 °C

Problem: # lookup: melting point of C/C(=N\c1cccc(C(=O)O)c1)c1c(O)c2ccccc2n(-c2ccccc2)c1=O
Solution: 242 to 243 °C

Problem: Which melting point is listed for O=C(O)C=CC(=O)c1ccccc1 ?
Solution: 91 to 96 °C

Problem: Find the recorded melting point belonging to COc1cc([N+](=O)[O-])c(OC)cc1N and report it.
Solution: 153 to 157 °C

Problem: Consider the compound O=C(O)C12CC3CC(CC(Cl)(C3)C1)C2 and give its measured melting point.
Solution: 136 to 140 °C

Problem: Consider the compound O=CC1=C(Cl)c2cc(Cl)ccc2SC1 and give its measured melting point.
Solution: 84 to 86 °C

Problem: What does the data say about its melting point? Entry: OCc1cc2cc(Br)ccc2o1
Solution: 101 to 103 °C

Problem: // lookup melting point for Cc1nc(-c2ccc(C(F)(F)F)cc2)sc1C(=O)CBr
Solution: 82 to 84 °C
